experiment: Solubility of compound at pH 7.4; format: physicochemical; details: buffer
Use 300 µM as the dividing line for solubility, with the line itself on the criterion met side and lower values as criterion not met.

{"Compound": "Cc1nc(Nc2cccc(N3CCCC3=O)n2)sc1-c1cc2c(c(S(=O)(=O)NC3COC3)c1)C(=O)N([C@@H](C)C(F)(F)F)C2", "Label": "criterion not met"}
{"Compound": "COCC(=O)N1CCC(COc2ccc(N3CCCC3=O)cc2)C1 (configuration not stated)", "Label": "criterion not met"}
{"Compound": "CS(=O)(=O)c1ccc(CNC(=O)C2CCN(c3cccc(C(F)(F)F)c3)C2=O)cc1 (configuration not stated)", "Label": "criterion not met"}
{"Compound": "Cc1nc(Nc2cccc(N3CCCCC3=O)n2)sc1-c1cc2c(c(S(=O)(=O)NC3COC3)c1)C(=O)N([C@@H](C)C1CC1)C2", "Label": "criterion not met"}
{"Compound": "O=C([C@@H]1C[C@H]1c1cccc(N2CCCCC2=O)c1)N1CCN(C2CCC2)CC1", "Label": "criterion met"}
{"Compound": "N#Cc1cccc2ncn(CC(=O)NCc3ccc(C(F)(F)F)nc3N3CCCC3=O)c12", "Label": "criterion met"}
{"Compound": "O=C1CCCCN1c1cnc(NCc2c(F)ccc3c2CCO3)c2cn[nH]c(=O)c12", "Label": "criterion not met"}
{"Compound": "CN1CCCN(c2cnc(NCc3c(F)ccc4c3CCO4)n3cnnc23)C1=O", "Label": "criterion not met"}
{"Compound": "O=C(C1CC1c1ccc(N2CCCC2=O)cc1)N1CCN(C2CCC2)CC1 (configuration not stated)", "Label": "criterion met"}
{"Compound": "CN1CCN(c2ccc(F)cc2CN2CCN(c3ccc(N4CCOCC4)cc3)C2=O)CC1", "Label": "criterion not met"}
{"Compound": "C[C@]1(CS(=O)(=O)N2CC=C(C#Cc3cccc(N4CCCCC4=O)c3)CC2)NC(=O)NC1=O", "Label": "criterion not met"}
{"Compound": "O=C([C@H]1C[C@@H]1c1cccc(N2CCCCC2=O)c1)N1CCN(C2CCC2)CC1", "Label": "criterion met"}
{"Compound": "O=C1CCCCN1c1cccc(C(=O)N(c2ncccc2Cl)[C@@H]2CCCNC2)c1", "Label": "criterion met"}
{"Compound": "Cc1nc(Nc2cccc(N3CCCN(C)C3=O)n2)sc1-c1cc2c(c(S(C)(=O)=O)c1)C(=O)N([C@@H](C)C1CC1)C2", "Label": "criterion not met"}
{"Compound": "CN1CCN(c2cnc(NCc3c(F)ccc4c3CCO4)n3cnnc23)C1=O", "Label": "criterion met"}
{"Compound": "C[C@]1(CS(=O)(=O)N2CC=C(C#Cc3cccc(N4CCCC4=O)c3)CC2)NC(=O)NC1=O", "Label": "criterion not met"}
{"Compound": "O=C([C@@H]1C[C@H]1c1cccc(N2CCCC2=O)c1)N1CCN(C2CCC2)CC1", "Label": "criterion met"}
{"Compound": "Cc1nc(Nc2cccc(N3CCCC3=O)n2)sc1-c1cc2c(c(S(C)(=O)=O)c1)C(=O)N([C@@H](C)C1CC1)C2", "Label": "criterion not met"}
{"Compound": "Cc1nc(Nc2cccc(N3CCCCC3=O)n2)sc1-c1cc2c(c(S(=O)(=O)NC3COC3)c1)C(=O)N([C@@H](C)C(F)(F)F)C2", "Label": "criterion not met"}
{"Compound": "Cc1nc(Nc2cccc(N3CCCCC3=O)n2)sc1-c1cc2c(c(S(C)(=O)=O)c1)C(=O)N([C@@H](C)C1CC1)C2", "Label": "criterion not met"}
{"Compound": "O=C1CCCN1c1cccc(C(=O)N(c2ncccc2Cl)[C@@H]2CCCNC2)c1", "Label": "criterion not met"}
{"Compound": "CC(=O)N1CCc2cc(-c3cccc4c3CCCC4)cc(N3CCCC3=O)c21", "Label": "criterion not met"}
{"Compound": "COCC(=O)N1CCC(COc2ccc(N3CCCCC3=O)cc2)C1 (configuration not stated)", "Label": "criterion met"}
{"Compound": "O=C1CCCCN1c1cnc(NCc2c(F)ccc3c2CCO3)n2cnnc12", "Label": "criterion met"}
{"Compound": "Cc1nc(Nc2cccc(N3CCN(C)C3=O)n2)sc1-c1cc2c(c(S(C)(=O)=O)c1)C(=O)N([C@@H](C)C1CC1)C2", "Label": "criterion not met"}
{"Compound": "Cc1nc(Nc2cccc(N3CCOC3=O)n2)sc1-c1cc2c(c(S(=O)(=O)NC3COC3)c1)C(=O)N([C@@H](C)C1CC1)C2", "Label": "criterion not met"}
{"Compound": "CN1CCN(c2ccc(F)cc2CN2CCCN(c3ccc(N4CCOCC4)cc3)C2=O)CC1", "Label": "criterion met"}
{"Compound": "CC(=O)N1CCc2cc(-c3cccc4c3CCCC4)cc(N3CCCCC3=O)c21", "Label": "criterion not met"}
{"Compound": "CS(=O)(=O)c1ccc(CNC(=O)C2CCCN(c3cccc(C(F)(F)F)c3)C2=O)cc1 (configuration not stated)", "Label": "criterion not met"}
{"Compound": "COc1ccc(N2CCN(C)CC2)c(CN2CCCN(c3ccc(N4CCOCC4)cc3)C2=O)c1", "Label": "criterion met"}
{"Compound": "COc1ccc(N2CCN(C)CC2)c(CN2CCN(c3ccc(N4CCOCC4)cc3)C2=O)c1", "Label": "criterion met"}
